Listed next: entries and their corresponding cell viability.
# System: U2OS
# experiment: cell viability relative to DMSO; higher = less toxic
# particulars: 72 h; 10000 nM
Write it as a number; the unit % goes unstated.

Below: 5 molecules and their reported cell viability.
CN(Cc1cccc(-c2ccccc2)c1)C(=O)Oc1ccc(-c2ccc(C(N)=O)cc2)cc1: 101
CC(=O)N1CCN(CCOc2ccc(C3CCN(C4=Nn5c(nnc5C(F)(F)F)CC4)CC3)cc2)CC1: 69.9
CC(C)CC(=O)Nc1n[nH]c2c1CN(C(=O)C1CCN(C)CC1)C2(C)C: 15
Cc1cc(C(N)=O)ccc1-n1c(CCC(=O)O)ccc1-c1ccc(-n2ccnc2)cc1: 97.2
CN1C(C(=O)Nc2ccccn2)=C(O)c2sccc2S1(=O)=O: 93.1

Recorded cell viability for `N#C/C(=C\c1ccc(O)c(O)c1)C(N)=O` , please? 100

Here is the next molecule: `CNC(=O)c1cccc(NC(=O)N2CCC(Oc3ccccc3Cl)CC2)c1` 91.4

Here is the next molecule: `CCCc1c2oc(C(=O)O)cc(=O)c2cc2c(=O)cc(C(=O)O)n(CC)c12` 97.1

Here is the next molecule: `O=C(Nc1ccc(Cl)cc1)Nc1ccc(Cl)c(Cl)c1` 97.2

Here is the next molecule: `COc1ccccc1-c1c[nH]c2ncc(-c3cncc(C(=O)N(C)C)c3)cc12` 96.4

====

Listed next: entries and their corresponding cell viability.
# Test system: Caco-2
# experiment: cell viability relative to DMSO; higher = less toxic
# particulars: 72 h; 10 nM
Write it as a number; the unit % goes unstated.

Below: 7 compounds and their reported cell viability.
COc1ccnc(C[S+]([O-])c2nc3cc(OC(F)F)ccc3[nH]2)c1OC (stereo not drawn): 104
Cc1cccc(-c2[nH]c(C(C)(C)C)nc2-c2ccc3c(c2)OCO3)n1: 94.3
CNC(=O)c1cccc(NC(=O)N2CCC(Oc3ccccc3Cl)CC2)c1: 100
CC1Cc2ccccc2N1NC(=O)c1ccc(Cl)c(S(N)(=O)=O)c1 (stereo not drawn) [indapamide]: 96
C=CC[N+]1([C@H]2C[C@H]3[C@@H]4CC[C@H]5C[C@H](O)[C@@H](N6CCOCC6)C[C@]5(C)[C@H]4CC[C@]3(C)[C@H]2OC(C)=O)CCCC1 [ROCURONIUM BROMIDE]: 103
CN1C2CCC1CC(OC(c1ccccc1)c1ccc(Cl)cc1)C2 (stereo not drawn): 89.7
Cc1cc(CCCOc2c(C)cc(-c3noc(C(F)(F)F)n3)cc2C)on1: 102

From here, focus on the item given below.
Recorded cell viability for `CC[C@H]1OC(=O)[C@H](C)[C@@H](O[C@H]2C[C@@](C)(OC)[C@@H](O)[C@H](C)O2)[C@H](C)[C@@H](O[C@@H]2O[C@H](C)C[C@H](N(C)C)[C@H]2O)[C@](C)(O)C[C@@H](C)CN(C)[C@H](C)[C@@H](O)[C@]1(C)O` , please? 104

====

# Test system: Vero E6
# experiment: cell viability relative to DMSO; higher = less toxic
# particulars: 72 h; 1 nM
Listed next: entries and their corresponding cell viability.
Write it as a number; the unit % goes unstated.

Below: 2 molecules and their reported cell viability.
CCCn1cnc2c1c(=O)n(CCCCC(C)=O)c(=O)n2C: 92.4
c1ccc(CN(CC2=NCCN2)c2ccccc2)cc1: 99.1

From here, focus on the item given below.
Short answer please: cell viability, Vero E6, entry `CC[C@@H](C)N(C)C(=O)c1cc2ccccc2c(-c2ccccc2Cl)n1` 99.4
